# assayOverview: in vitro dissolution of premix compared to beta form
# Assay type: physicochemical
# conditionDescription: Time in min 600; unit assumed
recordedEndpoint: in vitro dissolution
The reply must contain the numeric value and, after it, the unit.

Query: Tell me the measured in vitro dissolution of Br.Cc1ccc(Sc2ccccc2N2CCNCC2)c(C)c1 [Beta Form, Vortioxetine hydrobromide] , please.
Response: 63%

====

# assayOverview: in vitro dissolution of premix compared to beta form
# Assay type: physicochemical
# conditionDescription: Time in min 240; unit assumed
recordedEndpoint: in vitro dissolution (%)
All answers are understood in %, so give the number only.

Query: Tell me the measured in vitro dissolution of Br.Cc1ccc(Sc2ccccc2N2CCNCC2)c(C)c1 [Beta Form, Vortioxetine hydrobromide] , please.
Response: 49
